The reported numbers originate from ChEMBL document CHEMBL5247587.

Below, each of the compounds is paired with its reported CC50 at 72 h value.
Assay: Cytotoxicity against human HepG2.A64 cells assessed as reduction in cell viability incubated for 72 hrs by CCK8 assay
Assay type: toxicity, cell-based
ASSAY_READOUT: CC50 at 72 h

>>> result("O=C(NCCn1cnc2cc(-c3noc(CCC4CCCC4)n3)ccc21)c1ccc(C(F)(F)F)cc1")
"> 20 µM"
>>> result("Nc1ccn([C@@H]2CS[C@H](CO)O2)c(=O)n1")
"> 100 µM"
>>> result("O=C(NCCn1cnc2cc(-c3noc(CCC4CCCC4)n3)ccc21)c1cccc(C(F)(F)F)c1")
"> 20 µM"
